Reported pIC50 values for a set of molecules
molecular target: cathepsin D (Bos taurus); construct: Purified cathepsin D from bovine spleen; from tissue; host or cells: bovine spleen; experiment: Selectivity against various proteases: cathepsin D (CTD); assay type: biochemical, bovine
Sequence (P80209 45-390): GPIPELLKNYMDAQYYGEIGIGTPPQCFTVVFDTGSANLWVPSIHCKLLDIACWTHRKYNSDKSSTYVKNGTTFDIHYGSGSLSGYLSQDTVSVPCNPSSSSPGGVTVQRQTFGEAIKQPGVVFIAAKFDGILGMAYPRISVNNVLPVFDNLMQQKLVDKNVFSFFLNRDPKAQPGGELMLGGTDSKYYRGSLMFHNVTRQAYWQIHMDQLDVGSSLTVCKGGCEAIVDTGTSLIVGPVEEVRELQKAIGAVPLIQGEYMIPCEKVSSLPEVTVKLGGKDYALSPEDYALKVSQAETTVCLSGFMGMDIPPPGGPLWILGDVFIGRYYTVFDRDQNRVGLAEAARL
API: returns pIC50 as number; meaning -log10 of concentration in mol/L.

molecule | study-system | measured
CO[C@H]1C(=O)N2C(C(=O)OC(c3ccccc3)c3ccccc3)=C(C)C3(CC3(c3ccccc3)c3ccccc3)S(=O)(=O)[C@H]12 (some centres unmarked) | cathepsin D (Bos taurus) | 5.00

Using known records, supply pIC50 for CO[C@H]1C(=O)N2C(C(=O)OCC(Cl)(Cl)Cl)=C(C)C3(CC3(c3ccccc3)c3ccccc3)S(=O)(=O)[C@H]12 (some centres unmarked)
5.00
